Target: human CTPS1 (Homo sapiens)
Construct: FLAG (with GG linker); His8 (with GG linker); purchased Proteros biostructures GmbH
Sequence (P17812 whole entry): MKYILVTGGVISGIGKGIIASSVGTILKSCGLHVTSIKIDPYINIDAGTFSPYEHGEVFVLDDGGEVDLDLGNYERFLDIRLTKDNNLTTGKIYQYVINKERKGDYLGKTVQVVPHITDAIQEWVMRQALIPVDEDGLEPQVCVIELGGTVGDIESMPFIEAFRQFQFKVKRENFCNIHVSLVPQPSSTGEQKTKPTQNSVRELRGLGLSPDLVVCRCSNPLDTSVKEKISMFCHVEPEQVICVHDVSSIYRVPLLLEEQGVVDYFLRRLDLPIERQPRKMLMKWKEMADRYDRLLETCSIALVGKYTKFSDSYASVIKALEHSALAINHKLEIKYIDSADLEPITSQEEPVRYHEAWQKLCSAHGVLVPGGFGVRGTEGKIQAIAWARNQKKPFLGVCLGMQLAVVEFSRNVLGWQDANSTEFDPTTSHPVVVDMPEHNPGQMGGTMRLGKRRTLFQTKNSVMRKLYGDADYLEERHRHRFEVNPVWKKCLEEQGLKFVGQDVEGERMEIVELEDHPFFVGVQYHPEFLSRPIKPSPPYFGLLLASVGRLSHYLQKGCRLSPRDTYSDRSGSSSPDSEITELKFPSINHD
Experiment: Human CTPS1 enzyme inhibition, ADP-Glo Max assay
Type: biochemical
Conditions: ADP-Glo Max assay; Table 10; read-out: Human CTPS1 Enzyme Inhibition, IC50 grouped by potency range (CTPS1)
pIC50: −log10 of the molar value.
Recorded pIC50 values for a group of compounds are listed next.

Field pIC50 (system: human CTPS1 (Homo sapiens)) for entry COc1ncc(-c2ccc(NC(=O)Cc3csc(NS(=O)(=O)C4CC4)n3)cc2)cn1 = 5.00 to 6.00

Given the compound O=C(Nc1ccc(-c2ccccc2)cc1)C(F)(F)c1csc(NS(=O)(=O)C2CC2)n1 and test system human CTPS1 (Homo sapiens), the measured pIC50 is 6.00 to 7.00

Record CC(C)(C(=O)Nc1ccc(-c2cccc(C(F)(F)F)c2)cn1)c1csc(NS(=O)(=O)C2CC2)n1 ; system human CTPS1 (Homo sapiens); pIC50 = 6.00 to 7.00

pIC50 of CC(C)(C(=O)Nc1ccc(-c2cccnc2)cc1)c1csc(NS(=O)(=O)C(C)(C)C)n1 , assay on human CTPS1 (Homo sapiens), is 5.00 to 6.00

Entry CC(C)(C(=O)Nc1ccc(-c2cnccn2)c(C#N)c1)c1csc(NS(=O)(=O)C2CC2)n1 : pIC50 on human CTPS1 (Homo sapiens) = 6.00 to 7.00

human CTPS1 (Homo sapiens) pIC50 of COc1cncc(-c2ccc(NC(=O)C(C)(C)c3csc(NS(=O)(=O)C4CC4)n3)cc2)n1 is > 7.00

GET /values?item= CCC(C(=O)Nc1ccc(-c2cccnc2)cn1)c1csc(NS(=O)(=O)C2CC2)n1 (stereo not drawn) &system= human CTPS1 (Homo sapiens) returns pIC50: 6.00 to 7.00

The compound Cc1cc(Cl)cc(-c2ccc(NC(=O)C(C)(C)c3csc(NS(=O)(=O)C4CC4)n3)nc2)c1 , tested on human CTPS1 (Homo sapiens), showed pIC50 of 5.00 to 6.00

The reported human CTPS1 (Homo sapiens) pIC50 of COc1cc(NC(=O)C(C)(C)c2csc(NS(=O)(=O)C3CC3)n2)ccc1-c1cnccn1 is 6.00 to 7.00

The value of pIC50 recorded for O=C(Cc1csc(NS(=O)(=O)C2CC2)n1)Nc1ccc(-c2cncnc2)nc1 when tested on human CTPS1 (Homo sapiens) reads 6.00 to 7.00

Entry CCOc1cncc(-c2ccc(NC(=O)Cc3csc(NS(=O)(=O)C4CC4)n3)cc2)n1 under human CTPS1 (Homo sapiens) had pIC50 of > 7.00

Field pIC50 (human CTPS1 (Homo sapiens)), entry COc1cncc(-c2ccc(NC(=O)C(C)(C)c3csc(NS(=O)(=O)C4CC4)n3)c(F)c2)n1 : > 7.00
